Target: chimeric BTLA of humanised-BTLA mice (human extracellular region, murine transmembrane and signaling … (human; mouse, UniProt Q7TSA3 184-306, limits assumed)
Sequence (Q7TSA3 other isoform, or with tags, fused parts or gaps mutant limits assumed): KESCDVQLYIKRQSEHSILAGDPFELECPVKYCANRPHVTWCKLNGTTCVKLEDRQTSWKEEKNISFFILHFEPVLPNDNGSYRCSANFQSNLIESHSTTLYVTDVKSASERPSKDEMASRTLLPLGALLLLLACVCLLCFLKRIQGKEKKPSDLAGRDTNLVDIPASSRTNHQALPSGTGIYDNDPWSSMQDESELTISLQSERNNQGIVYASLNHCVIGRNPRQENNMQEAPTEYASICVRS
Assay: cell-based or functional assay
Parameter MLR (CD4 T cell proliferation) repeat 1, % inhibition: see the listing below.
Express your answer in %, writing the number without its unit.

Below, 2 binders whose answers are already recorded.
Request: Query: MLR (CD4 T cell proliferation) repeat 1, % inhibition; subject: 15B6 (antibody, IgG1, V domains shown) VH: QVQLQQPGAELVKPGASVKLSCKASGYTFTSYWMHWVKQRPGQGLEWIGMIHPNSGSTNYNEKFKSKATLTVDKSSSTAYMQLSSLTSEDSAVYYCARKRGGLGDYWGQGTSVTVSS VL: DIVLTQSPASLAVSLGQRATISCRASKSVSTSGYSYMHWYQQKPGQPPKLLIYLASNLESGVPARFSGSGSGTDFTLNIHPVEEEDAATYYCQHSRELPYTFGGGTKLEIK
Result: 7

Request: Requested read-out: MLR (CD4 T cell proliferation) repeat 1, % inhibition. Entry: 26B1 (antibody, IgG1, V domains shown) VH: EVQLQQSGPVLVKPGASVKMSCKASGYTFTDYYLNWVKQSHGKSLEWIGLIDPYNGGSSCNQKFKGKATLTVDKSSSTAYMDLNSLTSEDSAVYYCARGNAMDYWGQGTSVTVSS VL: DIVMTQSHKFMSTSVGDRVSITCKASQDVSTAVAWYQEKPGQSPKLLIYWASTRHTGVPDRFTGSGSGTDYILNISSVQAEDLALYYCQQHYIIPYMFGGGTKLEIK
Result: 12

More entries:
Request: Value lookup for MLR (CD4 T cell proliferation) repeat 1, % inhibition; key = 6.2 (antibody, IgG1, V domains shown) VH: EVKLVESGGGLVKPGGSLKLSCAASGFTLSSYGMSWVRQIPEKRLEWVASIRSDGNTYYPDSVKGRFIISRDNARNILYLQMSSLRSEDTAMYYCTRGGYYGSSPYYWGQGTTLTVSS VL: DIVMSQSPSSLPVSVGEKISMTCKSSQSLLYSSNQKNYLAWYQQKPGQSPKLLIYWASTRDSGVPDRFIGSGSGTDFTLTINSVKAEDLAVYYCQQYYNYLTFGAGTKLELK
Result: 31

Request: # MLR (CD4 T cell proliferation) repeat 1, % inhibition lookup, item 3A9 (antibody, IgG1, V domains shown) VH: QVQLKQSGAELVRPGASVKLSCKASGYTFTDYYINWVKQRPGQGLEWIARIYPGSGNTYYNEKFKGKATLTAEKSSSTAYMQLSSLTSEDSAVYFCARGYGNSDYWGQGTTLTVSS VL: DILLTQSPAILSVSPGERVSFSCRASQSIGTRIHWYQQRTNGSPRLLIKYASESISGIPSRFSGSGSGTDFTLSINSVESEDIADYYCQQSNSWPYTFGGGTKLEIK
Result: 7

Request: State the recorded MLR (CD4 T cell proliferation) repeat 1, % inhibition for this entry: 11.5.1 (antibody, IgG1, V domains shown) VH: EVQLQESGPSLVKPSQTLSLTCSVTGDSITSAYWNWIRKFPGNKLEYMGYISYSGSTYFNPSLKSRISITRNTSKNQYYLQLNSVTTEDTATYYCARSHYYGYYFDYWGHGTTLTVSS VL: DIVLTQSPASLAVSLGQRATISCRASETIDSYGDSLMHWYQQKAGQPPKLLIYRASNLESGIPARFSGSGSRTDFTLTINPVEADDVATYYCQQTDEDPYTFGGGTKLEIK
Result: 23
